Experiment: recombinant UMI read abundance after kanamycin selection (control-corrected) (log10(CPM+1)); higher = more efficient recombination; extreme values may be limits of the assay; sequences stand for … in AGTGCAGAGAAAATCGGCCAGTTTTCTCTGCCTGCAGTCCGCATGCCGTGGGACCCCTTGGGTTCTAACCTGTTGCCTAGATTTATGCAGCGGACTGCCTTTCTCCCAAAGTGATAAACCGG…AGGTTGGTTTCACT; site = the 11-nt donor;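 also: IS621 bridge recombinase in Escherichia coli cells against a fixed T5 target plasmid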
# Lookup of reported recombinant UMI read abundance (log10) keyed by entry
Please give only the number in your answer, with no unit.

1. CTGGAGTCATGGACCGGTTTTCCCGGTAATCCGTATTTGCC (site CAGGAGTCTGG); 2.88
2. CGACGTACATGGACCGGTTTTCCCGGTAATCCGTATTTGCT (site CGTCGTACTAG); 0.764
3. ACAAAATCATGGACCGGTTTTCCCGGTAATCCGTATTTGCA (site ACAGTATCTTG); 1.45

## Input I am curious: what recombinant UMI read abundance (log10) value has been reported for ACGCCTACATGGACCGGTTTTCCCGGTAATCCGTATTTGAG (site ACGCCTACTCT) ?
## Output 0.69

## Input Same lookup for ATTGAGGCATGGACCGGTTTTCCCGGTAATCCGTATTTGGT (site ATTGAGGCTAC) , please.
## Output 0.927

====

# Lookup of reported recombinant UMI read abundance (log10) keyed by entry
Test: recombinant UMI read abundance after kanamycin selection (control-corrected) (log10(CPM+1)); higher = more efficient recombination; extreme values may be limits of the assay; sequences stand for … in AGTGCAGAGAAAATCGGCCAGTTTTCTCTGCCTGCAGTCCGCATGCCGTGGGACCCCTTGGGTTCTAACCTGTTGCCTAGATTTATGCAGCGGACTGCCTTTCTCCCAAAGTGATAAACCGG…AGGTTGGTTTCACT; site = the 11-nt donor

Reference set (5 entries):
1. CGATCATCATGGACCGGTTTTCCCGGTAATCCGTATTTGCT (site CGTTCATCTGG); 0
2. CACCTTACATGGACCGGTTTTCCCGGTAATCCGTATTTGGG (site CACCTTACTCC); 0.0575
3. TAATGAGCATGGACCGGTTTTCCCGGTAATCCGTATTTGAG (site TAATGAGCTCC); 0.104
4. CGGTTCCCATGGACCGGTTTTCCCGGTAATCCGTATTTGTG (site TGGTTCCCTCA); 0.0119
5. TAATGAGCATGGACCGGTTTTCCCGGTAATCCGTATTTGAG (site TAATGAGCTCA); 0.196

Now for another entry.
## Input I am curious: what recombinant UMI read abundance (log10) value has been reported for GGATAGACATGGACCGGTTTTCCCGGTAATCCGTATTTGCA (site GGATAGACTGG) ?
## Output 0.112

====

Assay: recombinant UMI read abundance after kanamycin selection (control-corrected) (log10(CPM+1)); higher = more efficient recombination; extreme values may be limits of the assay; sequences stand for … in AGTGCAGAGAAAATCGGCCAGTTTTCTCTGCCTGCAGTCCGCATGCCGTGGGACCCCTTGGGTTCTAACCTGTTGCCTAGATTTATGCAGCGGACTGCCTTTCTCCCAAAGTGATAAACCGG…AGGTTGGTTTCACT; site = the 11-nt donor
Entry flag: True if recombinant UMI read abundance (log10) reaches 0.01; False if it does not.

Illustrative cases are given below, each with its answer.
1. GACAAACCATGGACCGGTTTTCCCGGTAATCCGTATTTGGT (site GAAAAACCTAC); False
2. AGATAGGCATGGACCGGTTTTCCCGGTAATCCGTATTTGCA (site AGATAGGCTTG); True
3. TGGACATCATGGACCGGTTTTCCCGGTAATCCGTATTTGCT (site CGGACATCTAG); True

## Input Textbook exercise: given the entry TACATCTCATGGACCGGTTTTCCCGGTAATCCGTATTTGTG (site TACATCTCTCA) , state whether its recombinant UMI read abundance (log10) is greater than or equal to 0.01.
## Output True

## Input Same lookup for TTAGCGGCATGGACCGGTTTTCCCGGTAATCCGTATTTGTG (site TTAGCCGCTCA) , please.
## Output False

## Input Same lookup for GCCCACCCATGGACCGGTTTTCCCGGTAATCCGTATTTGTT (site GGCCACCCTAA) , please.
## Output True
